Source of measurements: patent US11661437B2

pIC50 reference
Tested on: GABA-A receptor
Assay: 35S-TBPS binding assay on rat cerebral cortex cell membrane
Set-up: species or system Sprague-Dawley rat
Conditions: 2 nM 35S-TBPS, GABA added, read-out: 35S-TBPS bindng test, IC50 on inhibiting the TBPS binding activity
Method: 1.2.1 Extraction of Cerebral Cortex Cell Membrane: 1. The cerebral cortex of male Sprague-Dawley rat was isolated. 2. […] 9. The protein concentration was measured by the bicinchoninic acid (BCA) method. […] 11. 40 μL of scintillation solution was added to each well, and the CPM value was read with TopCount. […] In the experiment, the CPM (counts per minute) value was read with TopCount. […]
pIC50: −log10 of the molar value.
Readout: pIC50

Structure Smiles String: Cc1nnn(CC(=O)[C@H]2CC[C@H]3[C@@H]4CC[C@@H]5C[C@](C)(O)CC[C@]5(F)[C@H]4CC[C@]23C)n1
Tested Target: GABA-A receptor
Data Value: 7.87
--
Structure Smiles String: COc1ccc2c(c1)nnn2CC(=O)[C@H]1CC[C@H]2[C@@H]3CC[C@@H]4C[C@](C)(O)CC[C@]4(F)[C@H]3CC[C@]12C
Tested Target: GABA-A receptor
Data Value: 8.14
--
Structure Smiles String: C[C@@]1(O)CC[C@@]2(F)[C@H](CC[C@H]3[C@@H]4CC[C@H](C(=O)Cn5cc(C(=O)N6CCC6)cn5)[C@@]4(C)CC[C@@H]32)C1
Tested Target: GABA-A receptor
Data Value: 8.15
